- Test system: E.c(tolC)
- PROTOCOL: Minimum Inhibitory Concentration assay, E.c(tolC)
- Format: cell-based
- EXPERIMENTAL SETUP: 16 h, read-out: MIC (μM) E.c(tolC)
MEASURED ENDPOINT: MIC

As a guide, the following entries are already answered.
O=[N+]([O-])c1cccc(-c2c[nH]nc2-c2ccc(N3CCCCC3)c(C(F)(F)F)c2)c1 : > 500 µM
Fc1ccc(-c2n[nH]cc2-c2ccc(NCCNCc3ccccc3)c(C(F)(F)F)c2)cc1 : < 500 µM
NC1CCN(c2ccc(-c3c[nH]nc3-c3ccc(F)cc3)cc2C(F)(F)F)C1 (stereo not shown) : < 500 µM

# per-item lookup of MIC; items listed below
1. CS(=O)(=O)Nc1cccc(-c2c[nH]nc2-c2ccc(F)c(C(F)(F)F)c2)c1
2. O=[N+]([O-])c1cccc(-c2c[nH]nc2-c2ccc(F)c(C(F)(F)F)c2)c1
3. Clc1cccc(-c2[nH]ncc2-c2ccc(Cl)c(Cl)c2)c1
4. CCNC1CCN(c2ccc(-c3c[nH]nc3-c3ccc(F)cc3)cc2C(F)(F)F)C1 (stereo not shown)
5. FC(F)(F)c1cc(-c2cn[nH]c2-c2cccc(Cl)c2)ccc1Cl
6. O=C(COc1ccccc1)Nc1cccc(-c2c[nH]nc2-c2ccc(F)c(C(F)(F)F)c2)c1
7. O=c1[nH][nH]c(-c2ccccc2)c1-c1cccc(C(F)(F)F)c1

Ans.
["< 500 µM", "> 500 µM", "< 500 µM", "< 500 µM", "< 500 µM", "> 500 µM", "< 500 µM"]

* * *

- TARGET OR SYSTEM: Sigma^70 saturated E. coli RNA Polymerase (Escherichia coli, UniProt P0A7Z4+P0A800+P0A8T7+P0A8V2)
- Construct: purchased Epicenter
- Sequence (P0A8V2 whole entry): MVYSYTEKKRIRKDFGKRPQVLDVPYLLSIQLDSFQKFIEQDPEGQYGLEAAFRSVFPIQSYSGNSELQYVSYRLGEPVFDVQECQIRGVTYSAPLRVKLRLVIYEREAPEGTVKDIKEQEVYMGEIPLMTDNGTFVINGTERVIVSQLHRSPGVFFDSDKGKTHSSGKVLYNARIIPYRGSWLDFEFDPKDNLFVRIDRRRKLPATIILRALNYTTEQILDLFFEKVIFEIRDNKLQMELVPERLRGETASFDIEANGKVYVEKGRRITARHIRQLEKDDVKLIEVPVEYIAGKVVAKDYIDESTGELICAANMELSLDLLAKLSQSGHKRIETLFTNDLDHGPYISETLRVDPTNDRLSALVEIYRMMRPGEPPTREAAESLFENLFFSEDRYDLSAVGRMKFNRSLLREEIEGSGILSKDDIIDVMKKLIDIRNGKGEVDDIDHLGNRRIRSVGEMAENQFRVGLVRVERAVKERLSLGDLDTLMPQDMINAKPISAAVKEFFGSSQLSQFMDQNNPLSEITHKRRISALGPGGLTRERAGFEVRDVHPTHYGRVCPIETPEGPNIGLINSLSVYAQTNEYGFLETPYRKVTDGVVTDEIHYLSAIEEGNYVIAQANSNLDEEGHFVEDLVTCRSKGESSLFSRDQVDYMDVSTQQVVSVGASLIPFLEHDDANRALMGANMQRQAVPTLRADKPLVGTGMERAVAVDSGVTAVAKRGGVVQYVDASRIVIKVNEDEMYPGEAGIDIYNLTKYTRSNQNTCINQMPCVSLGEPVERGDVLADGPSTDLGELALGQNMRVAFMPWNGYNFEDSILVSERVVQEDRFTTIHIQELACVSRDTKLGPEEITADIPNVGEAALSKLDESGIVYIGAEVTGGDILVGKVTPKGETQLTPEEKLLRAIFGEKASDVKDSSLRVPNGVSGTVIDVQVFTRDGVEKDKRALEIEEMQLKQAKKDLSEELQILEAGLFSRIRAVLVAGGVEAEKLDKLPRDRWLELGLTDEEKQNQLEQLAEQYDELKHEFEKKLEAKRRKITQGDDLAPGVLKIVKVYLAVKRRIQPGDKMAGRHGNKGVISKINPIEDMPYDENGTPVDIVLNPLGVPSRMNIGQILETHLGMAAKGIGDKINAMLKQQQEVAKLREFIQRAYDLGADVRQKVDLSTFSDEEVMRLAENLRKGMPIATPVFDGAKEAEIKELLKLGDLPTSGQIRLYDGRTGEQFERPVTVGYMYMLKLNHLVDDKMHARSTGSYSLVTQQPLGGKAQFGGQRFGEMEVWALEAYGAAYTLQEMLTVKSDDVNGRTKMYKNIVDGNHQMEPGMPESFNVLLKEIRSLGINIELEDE
- Sequence (P0A8T7 whole entry): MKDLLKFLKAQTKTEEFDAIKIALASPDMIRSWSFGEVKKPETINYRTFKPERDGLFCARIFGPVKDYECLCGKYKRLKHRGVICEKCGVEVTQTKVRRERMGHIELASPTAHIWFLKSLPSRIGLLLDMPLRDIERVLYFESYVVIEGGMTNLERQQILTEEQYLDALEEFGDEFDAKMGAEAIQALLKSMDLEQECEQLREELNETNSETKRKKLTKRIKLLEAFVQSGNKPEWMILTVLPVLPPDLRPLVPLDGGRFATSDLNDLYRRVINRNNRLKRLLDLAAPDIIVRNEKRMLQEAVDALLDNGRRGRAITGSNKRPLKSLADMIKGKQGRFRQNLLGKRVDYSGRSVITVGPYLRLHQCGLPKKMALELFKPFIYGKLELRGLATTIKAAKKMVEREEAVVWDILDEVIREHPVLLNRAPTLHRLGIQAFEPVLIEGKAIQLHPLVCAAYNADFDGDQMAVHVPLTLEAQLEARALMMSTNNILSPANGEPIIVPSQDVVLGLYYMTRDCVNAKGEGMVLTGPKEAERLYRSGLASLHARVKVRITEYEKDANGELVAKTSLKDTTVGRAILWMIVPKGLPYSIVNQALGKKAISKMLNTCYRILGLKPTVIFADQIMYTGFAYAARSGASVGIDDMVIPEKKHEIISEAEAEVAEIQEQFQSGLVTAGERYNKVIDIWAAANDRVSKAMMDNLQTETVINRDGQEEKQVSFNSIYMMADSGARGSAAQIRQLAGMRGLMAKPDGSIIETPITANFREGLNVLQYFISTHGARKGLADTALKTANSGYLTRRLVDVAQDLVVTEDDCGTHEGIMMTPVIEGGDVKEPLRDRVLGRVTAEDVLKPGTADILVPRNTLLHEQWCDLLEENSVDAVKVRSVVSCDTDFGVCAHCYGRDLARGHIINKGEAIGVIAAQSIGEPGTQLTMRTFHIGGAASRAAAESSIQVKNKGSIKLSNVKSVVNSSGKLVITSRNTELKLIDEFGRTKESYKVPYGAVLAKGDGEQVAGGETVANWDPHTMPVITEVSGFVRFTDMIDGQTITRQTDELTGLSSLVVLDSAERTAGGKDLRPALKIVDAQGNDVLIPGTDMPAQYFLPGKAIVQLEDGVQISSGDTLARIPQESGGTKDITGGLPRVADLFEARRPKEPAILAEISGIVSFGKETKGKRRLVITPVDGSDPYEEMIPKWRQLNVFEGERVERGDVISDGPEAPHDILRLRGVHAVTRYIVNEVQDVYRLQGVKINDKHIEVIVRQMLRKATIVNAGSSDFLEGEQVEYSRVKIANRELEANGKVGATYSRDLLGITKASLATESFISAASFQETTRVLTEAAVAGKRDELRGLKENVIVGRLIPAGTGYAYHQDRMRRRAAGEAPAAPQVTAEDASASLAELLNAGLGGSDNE
- Sequence (P0A7Z4 whole entry): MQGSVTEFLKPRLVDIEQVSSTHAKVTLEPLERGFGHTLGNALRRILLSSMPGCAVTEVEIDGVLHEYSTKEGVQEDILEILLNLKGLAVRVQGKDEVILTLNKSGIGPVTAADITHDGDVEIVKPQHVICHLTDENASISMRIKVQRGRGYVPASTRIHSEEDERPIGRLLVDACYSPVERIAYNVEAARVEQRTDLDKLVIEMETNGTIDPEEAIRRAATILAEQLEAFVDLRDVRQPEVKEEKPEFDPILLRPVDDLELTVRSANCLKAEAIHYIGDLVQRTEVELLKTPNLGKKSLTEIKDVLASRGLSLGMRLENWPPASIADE
- Sequence (P0A800 whole entry): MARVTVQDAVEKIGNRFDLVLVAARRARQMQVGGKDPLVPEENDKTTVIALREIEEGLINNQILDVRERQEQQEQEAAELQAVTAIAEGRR
- PROTOCOL: IC50 assay, inhibition of RNA polymerase
- Format: biochemical
- EXPERIMENTAL SETUP: Table 1, compounds of Formula 1
Field: IC50. Provide a value for each of the compounds that follow.

Fc1ccc(-c2n[nH]cc2-c2cc(F)cc(C(F)(F)F)c2)cc1 [Example 26] : < 500 µM
CCNC1CCN(c2ccc(-c3c[nH]nc3-c3ccc(F)cc3)cc2C(F)(F)F)C1 (stereo not drawn) [Example 19] : < 500 µM

# per-item lookup of IC50; items listed below
1. O=C(Nc1ccc(Cl)c(C(F)(F)F)c1)NC1CCN(c2ccc(-c3c[nH]nc3-c3ccc(F)cc3)cc2C(F)(F)F)C1 (stereo not drawn) [Example 25]
2. NCCNc1cc(-c2c[nH]nc2-c2ccc(F)cc2)cc(C(F)(F)F)c1 [Example 27]
3. COc1ccc(-c2[nH]ncc2-c2ccccc2)cc1 [Example 6]
4. FC(F)(F)c1cc(-c2cn[nH]c2-c2cccc(Cl)c2)ccc1N1CCCC1 [Example 12]

Ans.
1: < 500 µM; 2: < 500 µM; 3: > 500 µM; 4: > 500 µM
